All figures here come from ChEMBL document CHEMBL5346943.

# measurement protocol: Microsomal stability in human liver microsomes assessed as half life preincubated for 10 mins followed by NADPH addition measured upto 60 mins by LC-MS/MS analysis
# Format: ADME, Microsome
# experimental setup: time < 70 min
result type: half-life (min)

P = C=CC(=O)N1CCC(c2cc3c(Oc4ccc(NC(=O)NC5CC5)c(Cl)c4)ccnc3cc2OC)CC1
Q = COc1cc2nccc(Oc3ccc(NC(=O)NC4CC4)c(Cl)c3)c2cc1C(N)=O
Compare half-life: is it lower for P or for Q ? Response format: the label of the selected entry.
Q

---

# measurement protocol: AUC(0 to t) in Sprague-Dawley rat measured at 100 mg/kg, po for 0.083 to 24 hrs by LC-MS/MS analysis
# Type: ADME, organism-based
# Set-up: time upper 24 hrs, dose 100 mg/kg, time lower 0.083 hrs, route po
# experimental setup: in vivo
result type: AUC(0-t) (ng·h/mL)
Provide only the numeric value, understood in ng·h/mL.

Which AUC(0-t) reading was recorded for the compound "C=CC(=O)N1CCC(c2cc3c(Oc4ccc(NC(=O)NC5CC5)c(Cl)c4)ccnc3cc2OC)CC1" ?
28100
